Data origin: patent US20200131144A1

Examples of compounds with documented EC50 follow.
target: LXRβ full length (FL) (Homo sapiens, UniProt P55055, INS174Q); construct: the full length (FL) proteins of LXRα (amino acids 1-447); NP005684; NP009052; assay: LXR Gal4 reporter transient transfection assay, mammalian two-hybrid, FL-M2H Gal4β; settings: HEK293 cells; inverse agonist unless *

## Input Field request: EC50 | item: COc1cc(CN(Cc2ccc(C(F)(F)F)o2)Cc2c(C)ccc3ccccc23)ccc1-c1cc(F)c(CO)c(S(=O)(=O)CC(=O)O)c1
## Output 100 to 1000 nM

## Input Queued: Cc1ccc2ccccc2c1C(=O)N(Cc1ccc(-c2cccc(C(C)(C)C(=O)O)c2)cc1)C1CCc2ccc(C(F)(F)F)cc21 (stereo not drawn)
## Output < 100 nM

# next compound below
## Input Field request: EC50 | item: Cc1ccc2ccccc2c1C(=O)N(Cc1ccc(-c2cccc([C@@H](C)C(=O)O)c2)cc1)Cc1ccc(C(F)(F)F)o1
## Output < 100 nM

---

biological target: GST-LXRβ ligand-binding domain (Homo sapiens, UniProt P55055, INS174Q); construct: amino acids 156-461; NP009052; test: TR-FRETβ activity assay (NCoA3 coactivator peptide recruitment); conditions: 1 μM 24(S)-25-epoxycholesterol as prestimulating agonist; inverse agonist unless *
Examples of compounds with documented EC50 follow.

## Input Field request: EC50 | item: Cc1cc(C)c(CN(Cc2ccc(-c3cccc(S(=O)(=O)CC(=O)O)c3)cc2)Cc2ccc(C(F)(F)F)o2)c(C)c1
## Output 1 to 10 µM

Continuing:
## Input Field request: EC50 | item: COc1cc(CN(Cc2ccc(C(F)(F)F)o2)Cc2c(C)ccc3ccccc23)ccc1-c1cc(F)c(CO)c(S(=O)(=O)CC(=O)O)c1
## Output > 10 µM

## Input Queued: Cc1ccc2ccccc2c1C(=O)N(Cc1ccc(-c2cccc([C@@H](C)C(=O)O)c2)cc1)Cc1ccc(C(F)(F)F)o1
## Output < 0.1 µM

---

Examples of compounds with documented pEC50 follow.
target: LXRβ full length (FL) (Homo sapiens, UniProt P55055, INS174Q); construct: the full length (FL) proteins of LXRα (amino acids 1-447); NP005684; NP009052; assay: LXR Gal4 reporter transient transfection assay, mammalian two-hybrid, FL-M2H Gal4β; details: HEK293 cells; inverse agonist unless *
pEC50: −log10 of the molar value.

Consider the following illustrative entries.
## Input Field request: pEC50 | item: CNc1nc(-c2cccc(C(C)(C)C(=O)O)c2)ccc1CN(Cc1ccc(C(F)(F)F)o1)C(=O)c1c(C)ccc2ccccc12
## Output 6.00 to 7.00

## Input Queued: Cc1nc2cccnc2c(C(=O)N(Cc2ccc(C(F)(F)F)o2)Cc2ccc(-c3cccc(C(C)(C)C(=O)O)c3)cc2C#N)c1C
## Output 6.00 to 7.00

## Input Queued: CCc1nc2cnccc2c(C(=O)N(Cc2ccc(-c3cccc(C(C)(C)C(=O)O)c3)cc2)Cc2ccc(C(F)(F)F)o2)c1C
## Output > 7.00

## Input Queued: Cc1cc(C(=O)N(Cc2ccc(-c3cccc(C(C)(C)C(=O)O)c3)cc2)Cc2ccc(C(F)(F)F)o2)c2ncccc2n1
## Output > 7.00

Continuing:
## Input Field request: pEC50 | item: Cc1ccc2ccccc2c1CN(Cc1ccc(-c2cccc(S(=O)(=O)CC(=O)O)c2)cc1)Cc1ccc(C(F)(F)F)o1
## Output > 7.00

## Input Queued: O=C(O)CS(=O)(=O)c1cccc(-c2ccc(CN(Cc3ccc(C(F)(F)F)o3)C(=O)c3cccc4ccccc34)cc2)c1
## Output 5.00 to 6.00

## Input Queued: Cc1ccc2nc(C)cc(C(=O)N(Cc3ccc(-c4cccc(C(C)(C)C(=O)O)c4)cc3)Cc3ccc(C(F)(F)F)o3)c2c1
## Output > 7.00

## Input Queued: Cc1ccc2ccccc2c1C(=O)N(Cc1ccc(C(F)(F)F)o1)Cc1c(F)cc(-c2cccc(C(C)(C)C(=O)O)c2)cc1Cl
## Output > 7.00

## Input Queued: Cc1c(CN(Cc2ccc(-c3cccc(C(C)(C)C(=O)O)c3)cc2)Cc2ccc(C(F)(F)F)o2)c2ccccc2[nH]c1=O
## Output > 7.00

## Input Queued: Cc1ccc2ccccc2c1C(=O)N(Cc1ccc(-c2cccc(C3(C(=O)O)CC3)c2)cc1)Cc1ccc(C(F)(F)F)o1
## Output > 7.00

---

Target: GST-LXRβ ligand-binding domain (Homo sapiens, UniProt P55055, INS174Q)
Construct: amino acids 156-461; NP009052
Sequence (P55055 with tags, fused parts or gaps INS174Q limits assumed): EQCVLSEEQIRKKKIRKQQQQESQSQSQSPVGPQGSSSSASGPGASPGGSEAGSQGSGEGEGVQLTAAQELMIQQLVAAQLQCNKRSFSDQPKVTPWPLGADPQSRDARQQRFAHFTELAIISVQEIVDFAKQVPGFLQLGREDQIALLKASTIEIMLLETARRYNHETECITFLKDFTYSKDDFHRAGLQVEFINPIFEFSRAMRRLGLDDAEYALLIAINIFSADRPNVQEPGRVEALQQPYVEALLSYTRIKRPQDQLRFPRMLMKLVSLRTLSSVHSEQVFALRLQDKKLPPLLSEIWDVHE
Experiment: TR-FRETβ activity assay (NCoA3 coactivator peptide recruitment)
Settings: 1 μM 24(S)-25-epoxycholesterol as prestimulating agonist; inverse agonist unless *
pEC50: −log10 of the molar value.
readout type: pEC50

## Input Field request: pEC50 | item: Cc1nc2cccnc2c(C(=O)N(Cc2ccc(-c3cccc(C(C)(C)C(=O)O)c3)cc2)Cc2ccc(C#N)o2)c1C [Example 33/1]
## Output 6.00 to 7.00

## Input Queued: Cc1ccc2ccccc2c1CN(Cc1ccc(-c2cc(C(C)(C)C(=O)O)ccn2)cc1)Cc1ccc(C(F)(F)F)o1 [14/1]
## Output 5.00 to 6.00

## Input Queued: COC(C)(C(=O)O)c1cccc(-c2ccc(CN(Cc3ccc(C(F)(F)F)o3)C(=O)c3c(C)ccc4ccccc34)cc2)c1 (centres unmarked) [27/11]
## Output 5.00 to 6.00

## Input Queued: Cc1ccc2ccccc2c1CN(Cc1ccc(C(F)(F)F)o1)Cc1ccc(-c2cncc(S(=O)(=O)CC(=O)O)c2)cc1Cl [26/8]
## Output 5.00 to 6.00

## Input Queued: Cc1cc(C)c(CN(Cc2ccc(C(F)(F)F)o2)Cc2ccc(-c3cccc(S(=O)(=O)CC(=O)O)c3)cc2C)c(C)c1 [15/1]
## Output 5.00 to 6.00

Continuing:
## Input Field request: pEC50 | item: Cc1cc(C)c(CN(Cc2ccc(-c3cccc(S(=O)(=O)CC(=O)O)c3)cc2)Cc2ccc(C(=O)N(C)C)o2)c(C)c1 [7/13]
## Output 5.00 to 6.00

## Input Queued: COc1cc(-c2cccc(C(C)(C)C(=O)O)c2)ncc1CN(Cc1ccc(C(F)(F)F)o1)C(=O)c1c(C)ccc2ccccc12 [27/85]
## Output 5.00 to 6.00

## Input Queued: Cc1ccc2c(F)cccc2c1CN(Cc1ccc(-c2cccc(C(C)(C)C(=O)O)c2)cc1)Cc1ccc(C(F)(F)F)o1 [27/44]
## Output 6.00 to 7.00

---

molecular target: GST-LXRβ ligand-binding domain (Homo sapiens, UniProt P55055, INS174Q); construct: amino acids 156-461; NP009052; made in house; host or cells: E. coli; assay: TR-FRETβ activity assay (NCoA3 coactivator peptide recruitment); format: biochemical; conditions: 1 μM 24(S)-25-epoxycholesterol as prestimulating agonist; inverse agonist unless *
readout type: EC50

## Input Field request: EC50 | item: Cc1ccc2ccccc2c1C(=O)N(Cc1ccc(-c2cncc(C(C)(C)C(=O)O)c2)cc1)Cc1ccc(C(F)(F)F)o1
## Output 100 to 1000 nM

## Input Queued: Cc1ccc2ccccc2c1CN(Cc1ccc(C(F)(F)F)o1)Cc1ccc(-c2cccc(C(C)(C)C(=O)O)c2)c2nccn12
## Output 1000 to 10000 nM

## Input Queued: Cc1ccc2nc(C)c(C)c(C(=O)N(Cc3ccc(-c4cccc(C(C)(C)C(=O)O)c4)cc3)Cc3ccc(C(F)(F)F)o3)c2c1
## Output 100 to 1000 nM

## Input Queued: Cc1cc(C)c(CCN(Cc2ccc(-c3cccc(S(=O)(=O)CC(=O)O)c3)cc2)Cc2ccc(C(F)(F)F)o2)c(C)c1
## Output > 10000 nM

## Input Queued: Cc1ccc2ccccc2c1C(=O)N(Cc1ccc(-c2cccc(S(=O)(=O)CC(=O)NS(C)(=O)=O)c2)cc1)Cc1ccc(C(F)(F)F)o1
## Output 100 to 1000 nM

## Input Queued: Cc1ccc2ccccc2c1C(=O)N(Cc1ccc(-c2cccc(C(C)(C)C(=O)O)c2)cc1)C1CCc2ccc(C(F)(F)F)cc21 (stereo not shown)
## Output 100 to 1000 nM

# next compound below
## Input Field request: EC50 | item: CCOC(=O)OC(OC(=O)C(C)(C)c1cccc(-c2ccc(CN(Cc3ccc(C(F)(F)F)o3)C(=O)c3c(C)ccc4ccccc34)cc2)c1)C(C)C (stereo not shown)
## Output 1000 to 10000 nM
